System: SF-539 CNS
Assay: NCI-60 one-dose screen, 48 h (100 = growth as untreated, 0 = no growth, -100 = all killed)
Conditions: 10 µM unless noted
Compounds without any hit were thinned out: in the full panel of roughly 83,000, 20% have a hit.

| COMPOUND | TARGET | growth / % |
| --- | --- | --- |
| O=Cc1c(OCc2cnnn2CC(=O)Nc2ccc(Br)cc2)ccc2ccccc12 | SF-539 CNS | 96.3 |
| CCc1ccc(CNCC(O)c2ccccc2)cc1 (stereo not drawn) | SF-539 CNS | 86.5 |
| Clc1ccc(COc2ccc(Nc3ncnc4onc(-c5ccccc5)c34)cc2)cc1 | SF-539 CNS | 97 |
| COc1cc([C@@H]2NC(=O)NC(C)=C2C(=O)Nc2nc(-c3ccc(Cl)cc3)cs2)ccc1O | SF-539 CNS | 95.7 |
| O=c1oc2ccc(I)cc2c(=O)n1-c1ccc(Br)cc1F | SF-539 CNS | 4.36 |
| NNC(=O)CNC(=O)Nc1n[nH]c(=S)s1 | SF-539 CNS | 109 |
| O=C(CCN1C(=O)c2ccccc2C1=O)Nc1ccc(Cl)cc1 | SF-539 CNS | 86.5 |
| O=C1c2ccc3c4c(ccc(c24)C(=O)N1CCCCO)C(=O)N(CCCCO)C3=O | SF-539 CNS | 68.3 |
| C[n+]1c2ccccc2nc2ccc(NCCO)cc21 | SF-539 CNS | 90.8 |
| O=C(Nc1ccc(Cl)cc1F)c1cc(Br)ccc1O | SF-539 CNS | 7.34 |
| COc1ccc(N)c(-c2cc3c(c4c2[nH]c2ccc(OC)cc24)CCCC3)c1 | SF-539 CNS | 98 |
| CN(C)c1ccc(N=Cc2ccc(N3CCOCC3)cc2)cc1 | SF-539 CNS | 31.6 |
| O=C(N/N=C/c1ccccc1Cl)C(=O)Nc1cccc(C(F)(F)F)c1 | SF-539 CNS | 102 |
| c1ccc2cc3c(Nc4ccc(N5CCOCC5)cc4)ccnc3cc2c1 | SF-539 CNS | 92.4 |
| COc1cc(C=C2C(=O)N(C)C(=O)N(C)C2=O)cc(CN2CCCCC2)c1O | SF-539 CNS | 100 |
| CCn1c(Cc2ccccc2Nc2c(Cl)cccc2Cl)nnc1SCC(=O)NN1C(=O)/C(=C/c2cccc(OC)c2OC)SC1=S | SF-539 CNS | 101 |
| CNCCNc1nc2ccccc2c2c(=O)c3cc(OC)ccc3sc12 | SF-539 CNS | 60 |
| Nc1ccc(-n2c(=O)oc3ccc(Cl)cc3c2=O)c(Cl)c1 | SF-539 CNS | -5.36 |

---

System: HCC-2998 colon
Test: NCI-60 one-dose screen, 48 h (100 = growth as untreated, 0 = no growth, -100 = all killed)
Conditions: 10 µM unless noted
Description: Growth inhibition of the HCC-2998 human tumor cell line is measured as a screen for anti-cancer activity. Cells are grown in 96 well plates and exposed to the test compound for 48 hours. Compounds are tested at a single concentration, which is 10^-5 M for most compounds. The reported endpoint is percent growth (GI% or GIPRCNT), where numbers from 0 - 100% represent growth inhibition, and numbers from -100% - 0 represent cell death. For example, a value of 40 represents 60% growth inhibition. […]
About 83,000 compounds went through this panel and 20% of them were active in at least one assay; those are over-represented in the sample as a whole.

| COMPOUND | UNIT SPEC | growth |
| --- | --- | --- |
| CCCSC1=NC2C(N(CC)C(=O)N2CC)N1/N=C/C=C/c1ccccc1[N+](=O)[O-] (configuration not stated) | % | 15 |
| O=C(Nc1ccc(N2CCNCC2)cc1)c1[nH]ncc1Nc1cc(C2CC2)ncn1 | % | 46.3 |
| Nc1ccc(C2c3ccccc3Oc3ccccc32)cc1 | % | 117 |
| CN1C(=O)N(C)C2(c3ccccc3)n3c(s/c(=C\c4ccccc4)c3=O)=NNC12c1ccccc1 (configuration not stated) | % | 110 |
| Cc1cc(Br)c(N)c(Br)c1 | % | 90.6 |
| COc1ccc(/C=C2\CCC/C(=C\c3ccc(OC)c(OC)c3)C2=O)cc1OC | % | -30.1 |
| COc1ccc(N)c(-c2cc3c(c4c2[nH]c2ccc(OC)cc24)CCCC3)c1 | % | 104 |

Ref: PubChem BioAssay (NCI)
